target.entity: Transglutaminase 2 (Cavia cutleri)
Sequence (P08587 1-690): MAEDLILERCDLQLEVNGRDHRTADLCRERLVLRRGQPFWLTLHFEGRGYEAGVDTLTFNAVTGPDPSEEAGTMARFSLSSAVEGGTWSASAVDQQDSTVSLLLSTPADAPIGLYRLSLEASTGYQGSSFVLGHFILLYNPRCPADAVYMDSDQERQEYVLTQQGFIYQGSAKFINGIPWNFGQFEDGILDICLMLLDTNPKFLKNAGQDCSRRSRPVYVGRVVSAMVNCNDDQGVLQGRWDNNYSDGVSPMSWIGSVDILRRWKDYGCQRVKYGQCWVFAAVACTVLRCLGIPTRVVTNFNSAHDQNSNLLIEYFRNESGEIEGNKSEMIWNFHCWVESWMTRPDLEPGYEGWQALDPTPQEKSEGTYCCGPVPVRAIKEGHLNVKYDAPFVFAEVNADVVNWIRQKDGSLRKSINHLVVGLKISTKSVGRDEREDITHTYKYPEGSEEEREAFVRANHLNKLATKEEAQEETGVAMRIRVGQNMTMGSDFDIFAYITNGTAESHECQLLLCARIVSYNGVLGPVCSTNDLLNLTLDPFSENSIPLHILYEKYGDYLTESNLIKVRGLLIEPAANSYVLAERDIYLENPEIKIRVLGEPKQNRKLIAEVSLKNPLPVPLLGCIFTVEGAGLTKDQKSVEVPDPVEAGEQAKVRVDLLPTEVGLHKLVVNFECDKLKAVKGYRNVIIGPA
metric.name: IC50 (nM)
Report only the number, with the unit nM understood.

Request: Tell me IC50 reported for `C(#Cc1nc2ncccc2nc1OCCN1CCCC1)c1ccccc1`
Result: 33.8
